Measured Activity of individual entries
system: BXPC-3; assay: Induction of apoptosis in human BxPC3 cells harboring pSFFV-Bcl-XL assessed as accumulation at sub-G0/G1 phase at 10 uM after 72 hrs by propidium iodide staining based flow cytometry (reference value: 2%); assay type: functional
Please give a number only; it is taken to be in %.

[[record]]
molecule = "CCCCCC/C=C\\CCCCCCCCOC[C@H]1NC[C@H](O)[C@@H]1O"
readout = "Activity"
units_text = "%"
observed_result = 4.1

[[record]]
molecule = "Cl.O[C@H]1CN[C@H](COCCCCCCCCC/C=C/c2ccc(-c3ccccc3)cc2)C1"
readout = "Activity"
units_text = "%"
observed_result = 15.7

[[record]]
molecule = "CCCCCCCC/C=C\\CCCCCCCCOCC[C@H]1NC[C@H](O)[C@@H]1O"
readout = "Activity"
units_text = "%"
observed_result = 3.1


Exercise: Enter measured Activity, system BXPC-3, for the molecule shown: CCCCCC/C=C/CCCCCCCCOC[C@H]1NC[C@H](O)[C@@H]1O
Solution: 3.8

Exercise: Enter measured Activity, system BXPC-3, for the molecule shown: O[C@H]1[C@@H](O)CN[C@@H]1COCCCCCCCC/C=C/c1ccc(Oc2ccccc2)cc1
Solution: 4.8

Exercise: Enter measured Activity, system BXPC-3, for the molecule shown: CCCCCCCCCCCCCCCCCCOCC(COP(=O)([O-])OCC[N+](C)(C)C)OC (configuration not stated)
Solution: 2.6

Exercise: Enter measured Activity, system BXPC-3, for the molecule shown: CCCCCCCCCCCCCCCCOC[C@H]1NC[C@H](O)[C@@H]1O
Solution: 5.8

---

assay: Induction of apoptosis in HPNE cells assessed as accumulation at sub-G0/G1 phase at 20 uM after 72 hrs by propidium iodide staining based flow cytometry (reference value: 6.6%); assay type: cell-based; conditions: human
Could you label it Fulfilled if measured Activity is 70% or higher, and Not fulfilled otherwise?

[[record]]
compound = "CCCCCCCCCCCCCCCCCCOCC(COP(=O)([O-])OCC[N+](C)(C)C)OC (stereo not given)"
cat = "Not fulfilled"


Exercise: Is it the case that O[C@H]1[C@@H](O)CN[C@@H]1COCCCCCCCC/C=C/c1ccc(Oc2ccccc2)cc1 has Activity reaching or exceeding 70%?
Solution: Fulfilled

Exercise: Is it the case that CCCCCCCC/C=C\CCCCCCCCOCC[C@H]1NC[C@H](O)[C@@H]1O has Activity reaching or exceeding 70%?
Solution: Fulfilled

Exercise: Is it the case that Cl.O[C@H]1CN[C@H](COCCCCCCCCC/C=C/c2ccc(-c3ccccc3)cc2)C1 has Activity reaching or exceeding 70%?
Solution: Fulfilled

Exercise: Is it the case that Cl.O[C@H]1CN[C@H](COCCCCCC/C=C/c2ccc(-c3ccccc3)cc2)C1 has Activity reaching or exceeding 70%?
Solution: Fulfilled

Exercise: Is it the case that CCCCCCCCCCCCCCCCOC[C@H]1NC[C@H](O)[C@@H]1O has Activity reaching or exceeding 70%?
Solution: Not fulfilled

Exercise: Is it the case that Cl.O[C@H]1CN[C@H](COCCCCCCCC/C=C/c2ccc(Oc3ccccc3)cc2)C1 has Activity reaching or exceeding 70%?
Solution: Fulfilled

Exercise: Is it the case that CCCCCC/C=C\CCCCCCCCOC[C@H]1NC[C@H](O)[C@@H]1O has Activity reaching or exceeding 70%?
Solution: Fulfilled

Exercise: Is it the case that Cl.O[C@H]1CN[C@H](COCCCCCCCCC/C=C/c2ccc(Oc3ccccc3)cc2)C1 has Activity reaching or exceeding 70%?
Solution: Fulfilled
